// provenance: patent EP2386565A2

Biological target: T1, CXCR4 (human, UniProt P61073 1-352)
T1 construct: whole, on cells
T1 sequence (P61073 whole entry): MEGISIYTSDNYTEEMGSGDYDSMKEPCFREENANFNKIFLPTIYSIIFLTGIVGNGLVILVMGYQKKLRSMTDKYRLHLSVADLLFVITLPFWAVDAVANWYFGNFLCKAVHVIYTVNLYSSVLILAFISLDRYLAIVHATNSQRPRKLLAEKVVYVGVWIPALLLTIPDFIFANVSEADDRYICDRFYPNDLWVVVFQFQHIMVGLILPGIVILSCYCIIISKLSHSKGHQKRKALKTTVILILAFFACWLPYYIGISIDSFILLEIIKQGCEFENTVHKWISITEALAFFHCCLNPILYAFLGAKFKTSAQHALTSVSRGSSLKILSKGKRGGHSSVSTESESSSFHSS
Assay: biotin-labeled peptide on receptor-expressing cell lines, 125I-streptavidin
pKd: −log10 of the molar value. No end group written: not given here. *: point of attachment. Biotin = O=C1N[C@H]2[C@H](CS[C@H]2CCCCC(=O)*)N1
Measured Metric: pKd

>  <Binder>
Biotin-CLDPKQKWIQC (cysteine pairing not given here, also called biotinylated peptide) [N-terminal biotin conjugate of the sequence n'-CLDPKQKWIQC-c']

>  <Measured Metric>
pKd

>  <Result>
< 5.00

$$$$
